molecular target: T1, Soluble IGF-1R (R&D Systems, Cat. # 391-GR/CF) (UniProt P08069 31-935, limits assumed)
T1 construct: extracellular domain; also called sIGF-1R; IGFR
measure: Ratio over Background, IGF-1R (ratio over background)
Report the value in ratio over background with no unit label.

- binder: "DYKDSRVAATKEKRPSDDPFYHKLSELLQGSAAAGAP (not shown: rest of the phage display fusion (remainder of E-Tag, phage coat protein)) [B6Hα-3-F7-IR]"
  Ratio over Background, IGF-1R (ratio over background): 3.1
- binder: "DYKDQSGSGDFYDWLSRLIRGNGDGAAAGAP (not shown: rest of the phage display fusion (remainder of E-Tag, phage coat protein)) [20E2Bβ-3-C7-IR]"
  Ratio over Background, IGF-1R (ratio over background): 3.1
- binder: "DYKDGLDHSDAVGVHLGFAWPAQARGRWEAGGLEDTWAGYDWLAAAGAP (not shown: rest of the phage display fusion (remainder of E-Tag, phage coat protein)) [40F-4-B1-IGFR]"
  Ratio over Background, IGF-1R (ratio over background): 3
- binder: "DYKDCSMAAVAEAGDDDDPFYHKLSELCQGSAAAGAP (not shown: rest of the phage display fusion (remainder of E-Tag, phage coat protein)) [B6Hα-3-F1-IR]"
  Ratio over Background, IGF-1R (ratio over background): 2.4
- binder: "DYKDAGSVTSFYDAMEQLVATGTSAAAAGAP (not shown: rest of the phage display fusion (remainder of E-Tag, phage coat protein)) [20E2A-3-A4-IGFR]"
  Ratio over Background, IGF-1R (ratio over background): 2.5

QUERY: Param item = DYKDRCGDEEGWQENRRDDPFYHKLSELFGGCAAAGAP (not shown: rest of the phage display fusion (remainder of E-Tag, phage coat protein)) [B6Hα-3-E5-IR] ; retrieve measured Ratio over Background, IGF-1R.
RESULT: 2.9

QUERY: Then this binder: DYKDVRGFQGGTVWPGYEWLRNAAAAAGAP (not shown: rest of the phage display fusion (remainder of E-Tag, phage coat protein)) [R20β-4-E8-IR]
RESULT: 34.9

QUERY: Next: DYKDAETSAQVGWQRLWSVWPGDHWSTLDPFYHKLSELLRESGAAAAGAP (not shown: rest of the phage display fusion (remainder of E-Tag, phage coat protein)) [B6L-3-G5-IR]
RESULT: 2
